assay: Solubility of REG in supercritical CO2, static isobaric-isothermal method with UV-Vis quantification; format: physicochemical; settings: 338 K, 270 bar, CO2 density 783 kg/m^3
Property name: S (equilibrium solubility) in ScCO2 (µg/mL)

> print(dat)
                                   compound  units.label  experimental.value
1  CNC(=O)c1cc(Oc2ccc(NC(=O)Nc3ccc(Cl)c(C(F)(F)F)c3)c(F)c2)ccn1 [Regorafenib monohydrate]        µg/mL                55.3

* * *

assay: Solubility of REG in supercritical CO2, static isobaric-isothermal method with UV-Vis quantification; format: physicochemical; conditions: 338 K, 180 bar, CO2 density 652 kg/m^3
Property name: S (equilibrium solubility) in ScCO2 (µg/mL)

> print(dat)
                                   compound  units.label  experimental.value
1  CNC(=O)c1cc(Oc2ccc(NC(=O)Nc3ccc(Cl)c(C(F)(F)F)c3)c(F)c2)ccn1 [Regorafenib monohydrate]        µg/mL                 7.2

* * *

experiment: Solubility of REG in supercritical CO2, static isobaric-isothermal method with UV-Vis quantification; type: physicochemical; conditions: 308 K, 150 bar, CO2 density 817 kg/m^3
Property name: S (equilibrium solubility) in ScCO2

> print(dat)
                                   compound  experimental.value
1  CNC(=O)c1cc(Oc2ccc(NC(=O)Nc3ccc(Cl)c(C(F)(F)F)c3)c(F)c2)ccn1 [Regorafenib monohydrate]          15.5 µg/mL

* * *

test: Solubility of REG in supercritical CO2, static isobaric-isothermal method with UV-Vis quantification; format: physicochemical; settings: 328 K, 270 bar, CO2 density 829 kg/m^3
Property name: S (equilibrium solubility) in ScCO2

> print(dat)
                                   molecule  experimental.value
1  CNC(=O)c1cc(Oc2ccc(NC(=O)Nc3ccc(Cl)c(C(F)(F)F)c3)c(F)c2)ccn1 [Regorafenib monohydrate]          0.0392 g/L

* * *

test: Solubility of REG in supercritical CO2, static isobaric-isothermal method with UV-Vis quantification; type: physicochemical; details: 308 K, 240 bar, CO2 density 896 kg/m^3
Property name: S (equilibrium solubility) in ScCO2 (µg/mL)

> print(dat)
                                   compound  units.label  experimental.value
1  CNC(=O)c1cc(Oc2ccc(NC(=O)Nc3ccc(Cl)c(C(F)(F)F)c3)c(F)c2)ccn1 [Regorafenib monohydrate]        µg/mL                29.2

* * *

Assay: Solubility of REG in supercritical CO2, static isobaric-isothermal method with UV-Vis quantification
Format: physicochemical
Conditions: 338 K, 240 bar, CO2 density 751 kg/m^3
Experimental: The solubility of REG in ScCO2 was measured using a pilot-scale apparatus, as depicted in Fig. 1. […] After reaching equilibrium, we used a 2-position 6-way port valve to collect 600 μL of saturated ScCO2 samples. […] Using a UNICO-4802 UV–Vis spectrophotometer set to a peak wavelength (λmax) of 275 nm, we examined the absorbance of REG in DMSO for solubility assessment. The solubility of REG in ScCO2 was determined according to a given equation. […]
Property name: S (equilibrium solubility) in ScCO2 (µg/mL)

> print(dat)
                                   compound  experimental.value
1  CNC(=O)c1cc(Oc2ccc(NC(=O)Nc3ccc(Cl)c(C(F)(F)F)c3)c(F)c2)ccn1 [Regorafenib monohydrate]                  41
